# Tested on: U2OS
# EXPERIMENTAL DETAILS: Multiplex assay against U2OS
# Format: toxicity, cell-based
# TEST CONTEXT: human, 48 h, 10 µM, compound concentration 10 uM, replicate 1
If the reported Population Healthy Nuclei (%) equals or exceeds 70%, assign fulfilled. If not, assign not fulfilled.

>  <MOLECULE>
CN1CCN(Cc2ccc(-c3cnc4[nH]cc(-c5ccc6[nH]ccc6c5)c4c3)cc2)CC1

>  <TARGET>
U2OS

>  <GROUP LABEL>
not fulfilled

$$$$
>  <MOLECULE>
CCCCCNC(=N)N/N=C/c1c[nH]c2ccc(OC)cc12.O=C(O)/C=C\C(=O)O [TEGASEROD MALEATE]

>  <TARGET>
U2OS

>  <GROUP LABEL>
not fulfilled

$$$$
>  <MOLECULE>
CC(Cc1ccc(O)c(O)c1)C(C)Cc1ccc(O)c(O)c1 (stereo unspecified) [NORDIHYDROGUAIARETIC ACID]

>  <TARGET>
U2OS

>  <GROUP LABEL>
fulfilled

$$$$
>  <MOLECULE>
N#Cc1cccc(C(=O)Nc2cc(-c3ccccc3)nn2-c2ccccc2)c1

>  <TARGET>
U2OS

>  <GROUP LABEL>
not fulfilled

$$$$
>  <MOLECULE>
Cc1c(Nc2ccc(S(=O)(=O)N3CCN(C)CC3)cc2F)nc2ccc(-c3cnn(C4CC4)c3)cn2c1=O

>  <TARGET>
U2OS

>  <GROUP LABEL>
not fulfilled

$$$$
>  <MOLECULE>
Cl.NC[C@@H]1O[C@H](C23CC4CC(CC(C4)C2)C3)Cc2c1ccc(O)c2O

>  <TARGET>
U2OS

>  <GROUP LABEL>
not fulfilled

$$$$
>  <MOLECULE>
CC(C)C[C@H](NC(=O)[C@H](Cc1ccccc1)NC(=O)CNC(=O)CNC(=O)[C@@H](N)Cc1ccc(O)cc1)C(=O)O

>  <TARGET>
U2OS

>  <GROUP LABEL>
fulfilled

$$$$
>  <MOLECULE>
CN1C(=O)[C@@H](NC(=O)c2cc3ccccc3[nH]2)N=C(c2ccccc2)c2ccccc21 [DEVAZEPIDE]

>  <TARGET>
U2OS

>  <GROUP LABEL>
not fulfilled

$$$$
>  <MOLECULE>
Oc1cccc(-c2nc(N3CCOCC3)c3oc4ncccc4c3n2)c1

>  <TARGET>
U2OS

>  <GROUP LABEL>
not fulfilled

$$$$
>  <MOLECULE>
Cc1c(P(=S)(c2ccccc2)c2ccccc2)n2ccccc2[n+]1C/C=C/c1ccccc1.[Br-]

>  <TARGET>
U2OS

>  <GROUP LABEL>
not fulfilled

$$$$

// query Tell me whether Population Healthy Nuclei (%) is at least 70% here: `CC(/C=C1\SC(=S)N(CCCC(=O)Nc2ccc(C(=O)O)c(O)c2)C1=O)=C\c1ccccc1`
// result fulfilled

// query Tell me whether Population Healthy Nuclei (%) is at least 70% here: `CC(C)c1cc(Nc2nc(N3CCC[C@H](N)C3)ncc2C(N)=O)cc(C(C)C)n1`
// result not fulfilled

// query Tell me whether Population Healthy Nuclei (%) is at least 70% here: `CCCc1cc(C)[nH]c(=O)c1CNC(=O)c1cc(-c2ccc(N3CCN(C(C)C)CC3)nc2)cc2c1cnn2C(C)C`
// result not fulfilled

// query Tell me whether Population Healthy Nuclei (%) is at least 70% here: `N#CCNC(=O)c1ccc(-c2ccnc(Nc3ccc(N4CCOCC4)cc3)n2)cc1`
// result not fulfilled

// query Tell me whether Population Healthy Nuclei (%) is at least 70% here: `Cc1ccc(S(=O)(=O)NC2c3ccccc3Oc3ccccc32)cc1`
// result fulfilled

Each recorded value in this set is attributed to ChEMBL document CHEMBL4689842.
